tested on: MOLT-4; assay: NCI tumour cell line growth inhibition, 48 h
Activity calls are given as the source filed them. Rule as the data show it: active = GI50 up to about 1.1 µM and inactive = higher.
experimentalEndpoint: GI50

Look over these answered cases.
compound: O=C(c1ccccc1)c1ccc(COc2ccc(C(c3c(O)c4ccccc4oc3=O)c3c(O)c4ccccc4oc3=O)cc2)cc1
GI50: 18.7 µM (inactive)

compound: COc1ccc2c3c(n(Cc4ccccc4)c(=O)c2c1)-c1cc(OC)c(OC)cc1C3C (stereo not given)
GI50: 8.32 µM (inactive)

compound: CN(C)CC1CCC(CN(C)C)C(=O)C1=O (stereo not given)
GI50: 2.03 µM (inactive)

[in] Read the entry `COc1cc(C(=O)Nc2cccc3ccccc23)c(Br)c(OC)c1OC` and write its reported GI50.
[out] 39.7 µM (inactive)

[in] Tell me measured GI50 for `CC(C)=CC(=O)Cc1nc2cc(C)c(C)cc2[nH]c1=O` please.
[out] > 100 µM (inactive)

[in] Indicate the recorded GI50 value for this compound: `O=C1CCN(CCC(F)(F)C(F)(F)C(F)(F)C(F)(F)F)C(=S)N1`
[out] > 100 µM (inactive)

* * *

# key: entry, value: GI50
system: MOLT-4; test: NCI tumour cell line growth inhibition, 48 h
Activity calls are given as the source filed them. Rule as the data show it: active = GI50 up to about 1.1 µM and inactive = higher.

[in] Answer with reported GI50 of `O=C(CCCN1CCC2(CC1)C(=O)NC(=O)N2c1ccccc1)c1ccc(F)cc1`
[out] > 100 µM (inactive)

[in] Look up GI50 of COc1ccc(/C=C2\CCC(C)(CN(C)C)C2=O)cc1Br (stereo not given) and report it.
[out] 20.3 µM (inactive)

[in] Find the measured GI50 of CC(=O)C1=CSC2[C@H](NC(=O)Cc3ccccc3)C(=O)N2C1C(=O)OC(c1ccccc1)c1ccccc1 (stereo not given in full) and report it.
[out] 35.8 µM (inactive)

* * *

system: CAKI-1; experiment: NCI tumour cell line growth inhibition, 48 h
The source made the active and inactive calls. Rule as the data show it: active = GI50 up to about 1.1 µM and inactive = higher.
experimentalEndpoint: GI50

Recorded results for 4 compounds are shown here.
compound: NC1CC(=O)c2csc(Cl)c21 (stereo not given)
target: CAKI-1
GI50: 1.86 µM (inactive)

compound: CC(=O)OCC1OC(O[C@@H]2C[C@H]3C(C)(C)[C@H](OC(C)=O)CC[C@]3(C)[C@H]3CC[C@@]45C[C@H](O)C[C@H](C)[C@@H]4CC=C5[C@@]32C)C(O)C(O)C1O (stereo not given in full)
target: CAKI-1
GI50: 11.6 µM (inactive)

compound: COc1cc2oc3c(c(=O)c2c(O)c1/C=C/C(C)C)CCC(C)(C)Oc1cc(O)ccc1-3
target: CAKI-1
GI50: 16.5 µM (inactive)

compound: S=C1SC(=N\c2ccccc2)/C(=N/c2ccccc2)N1c1ccccc1
target: CAKI-1
GI50: > 100 µM (inactive)

We now examine a further compound.
[in] Identify GI50 associated with the compound `COc1c(-c2nc3ccc(N4CCN(C)CC4)nc3[nH]2)cc(OC)c2[nH]c(CO)nc12`
[out] > 100 µM (inactive)

* * *

# GI50 annotations
test system: HOP-18; assay: NCI tumour cell line growth inhibition, 48 h
Active and inactive are the calls of the source. No stated cut-off is given here; in the data, active = GI50 up to about 1.1 µM and inactive = higher.

[in] Indicate the recorded GI50 value for this compound: `Cc1nc(Nc2ccc([N+](=O)[O-])cc2)sc1C(=O)/C=C/c1ccc(N(C)C)cc1`
[out] > 100 µM (inactive)

[in] Write down GI50 measured for item COC(=O)/C(=N\NC(N)=S)C(C(=O)OC)C(=O)C(=O)Nc1ccc(C)cc1 (stereo not given)
[out] > 100 µM (inactive)

* * *

system: MDA-N; experiment: NCI tumour cell line growth inhibition, 48 h
Calls of active or inactive are those of the source. Cut-off read from the data, not from the text of the source: active = GI50 up to about 1.1 µM and inactive = higher.
experimentalEndpoint: GI50

compound: CCCCCCCCCCCCCCCC(=O)Nc1ccn(C2CC(OP(=O)(O)OCC3OC(n4cc(F)c(=O)[nH]c4=O)CC3OC(C)=O)C(CO)O2)c(=O)n1 (stereo not given)
GI50: 42.5 µM (inactive)
--
compound: CC(=O)N1c2ccccc2C2=NN=C(N(C)C)SC21 (stereo not given)
GI50: 3.33 µM (inactive)
--
compound: COc1cc2oc3c(c(=O)c2c(O)c1/C=C/C(C)C)CCC(C)(C)Oc1cc(O)ccc1-3
GI50: 13 µM (inactive)
--
compound: Cc1ccc(Nc2nc(=O)[nH]c(=O)[nH]2)cc1N=[N+]=[N-]
GI50: > 100 µM (inactive)
--
compound: CCOC(=O)c1ccc(Nc2c3c(nc4ccccc24)CCCC3)cc1
GI50: 1.76 µM (inactive)
--
compound: CC[C@H](C)[C@H](NC(=O)[C@H](Cc1ccc(O)cc1)NCC(F)(F)F)C(=O)OC(C)(C)C
GI50: 8.32 µM (inactive)

[in] Please give measured GI50 of the following entry: `CN(C)CCCn1nc(N)c2nc3cc(Cl)ccc3nc21`
[out] 52.7 µM (inactive)

[in] Fill in reported GI50 for this entry: COc1ccc(C(C)NNC(=O)c2ccncc2)c(OC)c1 (stereo not given)
[out] > 100 µM (inactive)

[in] Quickly give me recorded GI50 for `O=C(/C(=C/c1cccs1)c1ccccc1)c1ccccc1`
[out] > 100 µM (inactive)

[in] Hello, please tell me recorded GI50 for this one: `O=S(=O)(O)CCCC1S(=O)(=O)OCCOS1(=O)=O`
[out] > 100 µM (inactive)

[in] Give reported GI50 value for `O=C(N/N=C\c1cccc2ccccc12)Nc1ccc([N+](=O)[O-])cc1`
[out] 19.1 µM (inactive)

[in] Input CN1CC(S(=O)(=O)c2ccccc2)CC(S(=O)(=O)c2ccccc2)C1c1ccccc1 (stereo not given) , output reported GI50.
[out] 11.6 µM (inactive)

[in] Look up and state reported GI50 for `CCN(CC)CCOc1ccc(N2Cc3cc(OC)c(OC)cc3C2=O)cc1`
[out] > 100 µM (inactive)

[in] Read the entry `NCCNCCCNC(=O)c1cc(-c2ccccc2)nc2ccccc12` and write its reported GI50.
[out] 25.5 µM (inactive)

[in] Give the reported GI50 for this compound. `CC1=CC(=O)N(n2c(Cc3ccc(Cl)cc3)n[nH]c2=O)C1=O`
[out] 44.7 µM (inactive)

[in] Look up and report measured GI50 for this entry: `O=C(O)c1ccccc1/C=N/N=C1NCCCCN1`
[out] > 100 µM (inactive)

[in] Tell me measured GI50 for COC(=O)[C@H](Cc1c[nH]c2ccccc12)NP(=O)(O)OCC1C=CC(n2cc(C)c(=O)[nH]c2=O)O1 (stereo not given in full) please.
[out] > 100 µM (inactive)

[in] Please supply the value of reported GI50 for the item `COc1cc(OC)c(OC)cc1/C=C\c1nccc2ccccc12`
[out] > 10 µM (inactive)

[in] Kindly indicate its recorded GI50. Item: `CC(=O)O[C@H]1C[C@@H](OC(C)=O)[C@@](C)(O)[C@@H]2[C@@H](OC(C)=O)[C@@]3(O)[C@H](/C=C(/CO)[C@H]4O[C@H]4[C@@H](OC(C)=O)[C@@]12C)OC(=O)[C@@H]3C`
[out] 3.09 µM (inactive)

[in] Input `O=[N+]([O-])c1ccccc1CSc1nc(O)c2nc[nH]c2n1` , output reported GI50.
[out] > 100 µM (inactive)

* * *

tested on: SNB-19; test: NCI tumour cell line growth inhibition, 48 h
Calls of active or inactive are those of the source. Rule as the data show it: active = GI50 up to about 1.1 µM and inactive = higher.
experimentalEndpoint: GI50

compound: CN(c1ccccc1)c1cc2ccccc2nn1
target: SNB-19
obsValue: > 100 µM (inactive)
--
compound: CC(=O)OC1CCCn2c1nc1c2C(=O)C(C)=C(N2CC2)C1=O (stereo unspecified)
target: SNB-19
obsValue: 0.338 µM (active)
--
compound: CC(C)=CCC/C(=C/CC/C(C)=C/CCc1ccoc1)C(=O)O
target: SNB-19
obsValue: > 100 µM (inactive)
--
compound: Cc1nc(Nc2ccccc2Cl)sc1C(=O)CC(=O)C(=O)Nc1c(Cl)cccc1Cl
target: SNB-19
obsValue: 63.8 µM (inactive)
--
compound: COc1ccc2c(c1)CC[C@@H]1[C@@H]2CC[C@]2(C)C(=O)/C(=C/c3ccc(N(C)C)cc3)C[C@@H]12
target: SNB-19
obsValue: 35.6 µM (inactive)

Would you kindly look at the next entry?
[in] Return GI50 for the following compound: CN1C2CCC1CC(C)(O)C2 (stereo unspecified)
[out] > 100 µM (inactive)

* * *

In this section, each of the molecules is paired with its reported GI50.
tested on: LOX IMVI; assay: NCI tumour cell line growth inhibition, 48 h
Active and inactive are the calls of the source. Rule as the data show it: active = GI50 up to about 1.1 µM and inactive = higher.

The examples below pair each entry with its known result.
molecule: O=C(O)c1ccccc1/C=N/N=C1NCCCCN1
obsValue: > 100 µM (inactive)

molecule: COC(=O)C1(Cc2ccccc2)Cc2cc3c(cc2C1)CCC3
obsValue: 18.6 µM (inactive)

[in] Indicate the recorded GI50 value for this molecule: `CC1(C)OC[C@@H](/C=C\CCO[Si](c2ccccc2)(c2ccccc2)C(C)(C)C)N1C(=O)c1ccccc1`
[out] 13.6 µM (inactive)

This collection of values is drawn from ChEMBL document CHEMBL1201862.
